# key: entry, value: IC50
# measured.target: Recombinant human Farnesyl Pyrophosphate synthase (FPPS) (Homo sapiens)
# Construct: made in house
# assay.method.text: FPPS enzyme assay, scintillation proximity (FlashPlate)
# Format: biochemical
# condition.description: FlashPlate SPA; GPP 150 nM, [3H]-IPP 150 nM, FPPS 500 pM, 45 minutes at room temperature; highest concentration tested 100 μM; read-out: FPPS IC50

Solved entries (count: 4):
{"sample.smiles": "O=C(OCc1ccccc1)c1ccc2cccc(-c3cccc4cnccc34)c2n1", "measured.target": "Recombinant human Farnesyl Pyrophosphate synthase (FPPS) (Homo sapiens)", "IC50": "> 10 µM"}
{"sample.smiles": "CCOP(=O)(CNc1ccc2cc(-c3ccn([Si](C(C)C)(C(C)C)C(C)C)c3)cc(-c3cccc4ccccc34)c2n1)OCC", "measured.target": "Recombinant human Farnesyl Pyrophosphate synthase (FPPS) (Homo sapiens)", "IC50": "> 100 µM"}
{"sample.smiles": "O=P(O)(O)CNCc1ccc2cccc(-c3cccc4ccccc34)c2n1", "measured.target": "Recombinant human Farnesyl Pyrophosphate synthase (FPPS) (Homo sapiens)", "IC50": "> 100 µM"}
{"sample.smiles": "O=C(O)c1ccc2cccc(-c3cccc4[nH]c(=O)ccc34)c2n1", "measured.target": "Recombinant human Farnesyl Pyrophosphate synthase (FPPS) (Homo sapiens)", "IC50": "> 100 µM"}

Kindly review the next compound as well.
Input: Consider the compound shown here: O=C(OCc1ccccc1)c1ccc2cccc(-c3cccc4c3CCCC4=O)c2n1 What is its recorded IC50?
Output: > 10 µM

---

# measured.target: FPPS (Farnesyl pyrophosphate synthase) (Homo sapiens)
# Sequence (P14324 1-353 isoform P14324-2): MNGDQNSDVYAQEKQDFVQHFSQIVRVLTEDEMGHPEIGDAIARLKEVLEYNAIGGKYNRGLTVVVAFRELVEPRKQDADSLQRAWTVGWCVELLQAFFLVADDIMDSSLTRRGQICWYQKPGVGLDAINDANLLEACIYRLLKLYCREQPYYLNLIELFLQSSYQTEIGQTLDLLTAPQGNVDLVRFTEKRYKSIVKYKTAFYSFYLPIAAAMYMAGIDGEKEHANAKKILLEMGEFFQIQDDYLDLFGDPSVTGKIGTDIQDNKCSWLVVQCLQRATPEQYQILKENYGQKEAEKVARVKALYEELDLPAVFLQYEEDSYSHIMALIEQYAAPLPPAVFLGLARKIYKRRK
Where a name gives a salt, the structure may show the parent alone.
measured.metric: IC50 (nM)

Example compounds with recorded IC50:
{"compound": "Nc1cc(-c2cccc3ccccc23)c2nc(/C=C/P(=O)(O)O)ccc2c1", "measured.metric": "IC50", "uom": "nM", "endpoint.result": 9}
{"compound": "CS(=O)(=O)N(c1cc(-c2cccc3ccccc23)c2nc(/C=C/P(=O)(O)O)ccc2c1)S(C)(=O)=O", "measured.metric": "IC50", "uom": "nM", "endpoint.result": 204}
{"compound": "O=P(O)(O)c1ccc2cc(-c3cccs3)cc(-c3cccc4ccccc34)c2n1", "measured.metric": "IC50", "uom": "nM", "endpoint.result": 266}
{"compound": "CCOc1c(I)cc(-c2cccc3ccccc23)c2nc(C(=O)O)ccc12 [Example 33, lithium salt]", "measured.metric": "IC50", "uom": "nM", "endpoint.result": 56}

a. O=P(O)(O)c1ccc2cc(-c3ccsc3)cc(-c3cccc4ccccc34)c2n1 [Example 27c.ii]
b. O=P(O)(O)c1ccc2cc(I)cc(-c3cccc4ccccc34)c2n1
Input: // which entry has the larger IC50 value, a or b ? Bench note: the answer is the label of the chosen record.
Output: b
